Details: in isopropanol, 298.15 K

>  <Compound>
CN(Cc1ccccc1)CN1C(=O)C(=NNC(=O)c2ccccc2OCc2ccccc2)c2ccccc21

>  <solubility (mole fraction)>
0.000414

$$$$

###

Conditions: in ethanol, 303.15 K
Measure name: solubility (mole fraction)

>  <Compound>
CN(Cc1ccccc1)CN1C(=O)C(=NNC(=O)c2ccccc2OCc2ccccc2)c2ccccc21

>  <Measure name>
solubility (mole fraction)

>  <Recorded result>
0.000583

$$$$

###

Settings: in propylene glycol, 313.15 K
Measure name: solubility (mole fraction)

>  <Compound>
CN(Cc1ccccc1)CN1C(=O)C(=NNC(=O)c2ccccc2OCc2ccccc2)c2ccccc21

>  <Measure name>
solubility (mole fraction)

>  <Recorded result>
0.000782

$$$$
